Form field: % Inhibition (one value per entry).
Target of assay: MICB*005 on HCC1534 cells (human); note: test concentration or dose not given here
Test summary: cell-based or functional assay
Quantity: % Inhibition (%)

binder="1D5v16 (antibody, IgG1, V domains shown, humanized variant of 1D5) VH: EVQLVQSGAEVKKPGASVKVSCKASGYAFTSQNIYWVRQAPGQGLEWIGYIEPYNVVPMYNPKFKGRVTITRDTSTSTAYLELSSLRSEDTAVYYCARSGSSNFDYWGQGTLVTVSS VL: DIQMTQSPSSLSASVGDRVTITCSASSSISSHYLHWYQQKPGKAPKLLIYRTSNLASGVPSRFSGSGSGTDFTLTISSLQPEDFATYYCQQGSSLPLTFGQGTKVEIK" display_unit=% value_reported=51
binder="1D5v28 (antibody, IgG1, V domains shown, humanized variant of 1D5) VH: EIQLVQSGAEVKKPGASVKVSCKASGYAFTSQNIYWVRQAPGQGLEWIGYIEPYNVVPLYNPKFKGRATLTVDKSTSTAYLELSSLRSEDTAVYYCARSGSSNFDYWGQGTLVTVSS VL: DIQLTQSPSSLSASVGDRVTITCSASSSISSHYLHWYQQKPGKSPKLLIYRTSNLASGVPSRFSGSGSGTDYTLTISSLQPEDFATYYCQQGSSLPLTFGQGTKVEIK" display_unit=% value_reported=36
binder="1D5v8 (antibody, IgG1, V domains shown, humanized variant of 1D5) VH: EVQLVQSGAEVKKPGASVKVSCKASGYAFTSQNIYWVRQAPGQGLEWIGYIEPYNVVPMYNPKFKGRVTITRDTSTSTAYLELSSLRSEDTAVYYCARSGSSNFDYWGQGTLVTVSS VL: EIVLTQSPDFQSVTPKEKVTITCSASSSISSHYLHWYQQKPDQSPKLLIKRTSNLASGVPSRFSGSGSGTDFTLTINSLEAEDAATYYCQQGSSLPLTFGQGTKVEIK" display_unit=% value_reported=35
binder="1D5v2 (antibody, IgG1, V domains shown, humanized variant of 1D5) VH: EVQLVQSGAEVKKPGASVKVSCKASGYAFTSQNIYWVRQAPGQGLEWMGYIEPYNVVPMYNPKFKGRVTMTTDTSTSTAYMELRSLRSDDTAVYYCARSGSSNFDYWGQGTLVTVSS VL: EIVLTQSPDFQSVTPKEKVTITCSASSSISSHYLHWYQQKPDQSPKLLIYRTSNLASGVPSRFSGSGSGTDYTLTINSLEAEDAATYYCQQGSSLPLTFGQGTKVEIK" display_unit=% value_reported=26
binder="15F11v3 (antibody, IgG1, V domains shown, humanized variant of 15F11) VH: EVQLVQSGAEVKKPGASVKVSCKASGYAFTSNNIYWVRQAPGQGLEWIGYIDPYIGRIIYNQQFKDRVTITADTSTSTAYLELSSLRSEDTAVYYCSRSGERSNFDYWGQGTLVTVSS VL: EIVLTQSPATLSLSPGERATLSCSASSSISSNYLHWYQQKPGQSPRLLIYRTSNLASGVPARFSGSGSGTDYTLTISSLEPEDFAVYYCQQGGSLPLTFGQGTKVEIK" display_unit=% value_reported=-49
binder="1D5v6 (antibody, IgG1, V domains shown, humanized variant of 1D5) VH: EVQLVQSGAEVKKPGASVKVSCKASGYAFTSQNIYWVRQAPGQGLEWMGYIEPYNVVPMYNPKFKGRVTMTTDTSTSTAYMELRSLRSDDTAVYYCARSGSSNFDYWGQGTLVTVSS VL: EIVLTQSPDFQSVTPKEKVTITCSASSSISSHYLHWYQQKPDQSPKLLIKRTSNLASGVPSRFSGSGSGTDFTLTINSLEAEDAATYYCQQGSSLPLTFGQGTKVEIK" display_unit=% value_reported=37
binder="1D5v22 (antibody, IgG1, V domains shown, humanized variant of 1D5) VH: EIQLVQSGAEVKKPGASVKVSCKASGYAFTSQNIYWVRQAPGQGLEWIGYIEPYNVVPMYNPKFKGRATLTRDKSTSTAYLELSSLRSEDTAVYYCARSGSSNFDYWGQGTLVTVSS VL: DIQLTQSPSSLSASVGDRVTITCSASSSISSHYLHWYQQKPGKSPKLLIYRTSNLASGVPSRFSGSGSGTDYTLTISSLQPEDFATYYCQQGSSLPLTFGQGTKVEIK" display_unit=% value_reported=34
binder="1D5 (antibody, V domains shown, mouse variable domains; also called anti-MIC 1D5) VH: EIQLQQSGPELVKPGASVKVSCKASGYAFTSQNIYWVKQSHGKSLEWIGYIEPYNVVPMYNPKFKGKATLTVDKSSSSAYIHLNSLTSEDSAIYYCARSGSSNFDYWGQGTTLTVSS VL: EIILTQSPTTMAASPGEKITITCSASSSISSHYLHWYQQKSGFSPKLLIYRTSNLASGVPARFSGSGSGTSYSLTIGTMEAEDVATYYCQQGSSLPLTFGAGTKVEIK" display_unit=% value_reported=49
binder="1D5v18 (antibody, IgG1, V domains shown, humanized variant of 1D5) VH: EIQLVQSGAEVKKPGASVKVSCKASGYAFTSQNIYWVRQAPGQGLEWIGYIEPYNVVPMYNPKFKGRATLTVDKSTSTAYLELSSLRSEDTAVYYCARSGSSNFDYWGQGTLVTVSS VL: DIQLTQSPSSLSASVGDRVTITCSASSSISSHYLHWYQQKPGKSPKLLIYRTSNLASGVPSRFSGSGSGTDFTLTISSLQPEDFATYYCQQGSSLPLTFGQGTKVEIK" display_unit=% value_reported=41
binder="1D5 (m IgG2a, CHO) (antibody, V domains shown) VH: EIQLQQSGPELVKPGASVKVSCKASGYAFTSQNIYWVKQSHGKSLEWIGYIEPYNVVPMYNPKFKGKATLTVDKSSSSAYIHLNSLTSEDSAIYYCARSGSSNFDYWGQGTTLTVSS VL: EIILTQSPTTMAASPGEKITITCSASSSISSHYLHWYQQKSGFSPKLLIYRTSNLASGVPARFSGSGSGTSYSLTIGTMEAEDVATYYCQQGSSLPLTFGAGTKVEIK" display_unit=% value_reported=76
